Target: T1, TBD-21 (HC F108A)
T1 construct: Fab; also called HC F108A mutant
T1 sequence (VH, as listed by the source, chain 1 of 2): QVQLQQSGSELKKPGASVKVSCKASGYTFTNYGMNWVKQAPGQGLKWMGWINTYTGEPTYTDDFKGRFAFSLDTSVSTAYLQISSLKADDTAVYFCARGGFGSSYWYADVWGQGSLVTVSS
T1 sequence (VL, as listed by the source, chain 2 of 2): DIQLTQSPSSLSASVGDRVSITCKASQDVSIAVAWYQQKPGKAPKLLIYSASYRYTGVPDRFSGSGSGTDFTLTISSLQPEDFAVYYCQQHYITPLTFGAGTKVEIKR
Experiment: competition ELISA, peptide vs Fab binding to captured biotin-TROP2
Where no end group is shown, it is not given here.
measured parameter: pIC50
Answer as the number alone; pIC50 is minus log10 of concentration in mol/L.

binder | pIC50
PDFCYMYNWPVCVT (cysteine pairing not given here; also: biotinylated, site not given here) [Peptide-33] | 4.80
PDFCAVYRWPICYQ (cysteine pairing not given here; also: biotinylated, site not given here) [Peptide-64] | 5.79
IDFCMLYNWPICAG (cysteine pairing not given here; also: biotinylated, site not given here) [Peptide-3] | 5.70
IDFCAVYKWPVCQV (cysteine pairing not given here; also: biotinylated, site not given here) [Peptide-62] | 5.52
VDFCYLYSWPICTK (cysteine pairing not given here; also: biotinylated, site not given here) [Peptide-40] | 5.00

// returns reported pIC50 for input VDFCALYHWPICYQ (cysteine pairing not given here; also: biotinylated, site not given here) [Peptide-43]
6.16

Give the measured pIC50 of PDFCYMYGWPICDS (cysteine pairing not given here; also: biotinylated, site not given here) [Peptide-32] .
4.88

// pIC50 lookup, key: IDFCAMYHWPICDT (cysteine pairing not given here; also: biotinylated, site not given here) [Peptide-42]
6.03
